Could you please report measured melting point for the items listed next?

Short answer for Cc1cc(C)n(-c2ccccc2)c(=O)c1C(=O)NC1CCCCCC1 : melting point was 138 to 140 °C

Short answer for Cc1cc(C)n(C(=O)CC#N)n1 : melting point was 119 to 121 °C

Short answer for Cc1cc(C)n(-c2ccccc2)c(=O)c1C(=O)NC12CC3CC(CC(C3)C1)C2 : melting point was 164 to 165 °C
